Values compiled from patent US20100010002A1.

# Tgt: Ba/F3 Bcr-Abl/Y253H (Homo sapiens, UniProt P00519, Y253H, cells depend on it)
# Construct: fused on or other part: P11274 (Breakpoint cluster region protein)
# Protocol Text: CCK-8 assay, Ba/F3 Bcr-Abl/Y253H
# Type: cell-based
# Measurement Parameters: mouse, 72 h
Listed here are compounds together with their documented GI50.
The figure you give is taken to be in µM; do not add the unit.

Use the examples below as a reference point.
CCOC(=O)C=Cc1ccc(O)c(O)c1 ... 13.2
CC(C)OC(=O)C=Cc1ccc(O)c(O)c1 ... 13.3
COC(=O)C=Cc1ccc(O)c(O)c1 ... 14.5

Problem: Query the reported GI50 for Ba/F3 Bcr-Abl/Y253H (Homo sapiens, UniProt P00519, Y253H, cells depend on it); item: CCCOC(=O)C=Cc1ccc(O)c(O)c1
Solution: 3.3
